Where do these numbers come from? They come from the nanobody polyreactivity screen of Harvey et al. (2022).

test_details: yeast display, Sf9 membrane polyspecificity reagent, FACS + sequencing; frameworks hold sequencing errors
quantity_kind: polyreactivity (PSR sort gate)

[
  {
    "sequence_text": "QVQLVESGGGLVQAGGSLRLSCAASGSIFRYYAKGWYRHAPGKERELVAVISRSGTRTYYADSVKGRFTISRDNAKNTVYLQMNSLKPEDTAVYYCAAKDERRSFGMGYWGQGTQVTVSS",
    "value_observed": "high polyreactivity"
  },
  {
    "sequence_text": "QVQIVESGGGLVQAGGSLSLSCAASGFTLVGYAMGWYRQAPGKERELVAAISSGGRTKYADSVKGRFTISRDNAKNTVYLQMNSLKPEVTAVFYCAAPYNVRWRYGYWGQGTQVTVSS",
    "value_observed": "high polyreactivity"
  },
  {
    "sequence_text": "QVQLVESGGGIVQAGGSLRLSCAASGRIFGYYAMGWYRQAPGKERELVARISSSGGSTYYADSVKGRFTISRDNAKNTVYVQMNSLKPEDTAVDYCNTASNRYPGWRAEFDYWGQGTQVTVSS",
    "value_observed": "low polyreactivity"
  },
  {
    "sequence_text": "QVQHVESGGGLVQAGGSLRLSCAASGLNLYSNAMGCYRQAPGNERELVAAISWIGASTYYADSVKGRFTISRDNAKNTVYLQMNSLKQEDTAVYYCATARYRGYPTYSYARDYCGQGTQVTVSS",
    "value_observed": "high polyreactivity"
  },
  {
    "sequence_text": "QVQLVESGGALVQAGGSLRLSCAASGSTFNRYAMGWYRQAPGKERELVAAISASGGSTYYADSVKGRFTISRDNAKNTVYLQMNSLKPEDTAVYYCATLHYVGQEHDYWGQGTQVTVSS",
    "value_observed": "low polyreactivity"
  },
  {
    "sequence_text": "QVQLVESGGGLVQAGGSLRLSCAASGSIFNIYAMGWYRQAPGKESELVAAISYSGGSTYYADSVKGRFTISRDNAKNTVYLQMNSLKPEDTAVYYCNADGYYFLISNANPLGYWGQGTQVTVSS",
    "value_observed": "low polyreactivity"
  },
  {
    "sequence_text": "QVQLVESGGGLVQAGGSLRLSCAASGFTFNYYAMGWSRQAPGKERELVAAITWDGGTTYYADSVKGRFTISRDNAKNTVYLQMNSLKPEDSAVYYCAADYAWVSIYDNVPSAPGYDYWGQGTQVTVSS",
    "value_observed": "low polyreactivity"
  },
  {
    "sequence_text": "QVQLVESGGGLVQAGGSLRLSCAASGRIFGYYAMGWYRQAPGKERELVADITESGTSTYYADSVKGRFTISRDNAKNTVYLQMNSLKPEDTAVYYCAAGYWWRYALYGYWGQGTQVTVSS",
    "value_observed": "low polyreactivity"
  },
  {
    "sequence_text": "QVQLVESGGGLVQAGGSLRLSCAASGRIDLYNDMGWYRQAPGKERELVAAITWRSGSTYYADSVKGRFTFSRDNAKNTFYCQMNSLNPEDTAVYYCAKRGSGYKQDFKSYSGHYWGHGTQVTVSS",
    "value_observed": "high polyreactivity"
  },
  {
    "sequence_text": "QVQLVQSGGVLVQAGGSLRLSCAASGFIFNTYAMGWYRPAPGKERELVAAIDGRGGTTYYADSVKGRFTISRDYAKNTVYLQMHSLKPEDTAVYYCAARYQRLGIRYGYWGQGTQVTVSS",
    "value_observed": "high polyreactivity"
  },
  {
    "sequence_text": "QVQLVESGGGLVQAGGSLRLSCAASGSTLSRYVMGWSRHAPGKERELVASISWSGTRTYYADSVKGRFTISRDNAKNTVYLQMNSLIPEDTAVYYCNAVSRGGRLYDYWGQGTQVTVSS",
    "value_observed": "high polyreactivity"
  }
]

* * *

test_details: yeast display, Sf9 membrane polyspecificity reagent, FACS + sequencing; frameworks hold sequencing errors

[
  {
    "sequence_text": "QVQLVESGAGLVQAGGSLRLSCAPSGSTFEDYAMGWYRQAPGKERELVAAISHIGGSTYYADSVKGRFTISRDNAKNTVYLQMNSLKPEDTAVYYCAKGGFSSKFDYWGQGTQVTVSS",
    "polyreactivity (PSR sort gate)": "low polyreactivity"
  },
  {
    "sequence_text": "QVQPVESGGGLVQAGGSLRLSCAASGIIFISYDMGWYRQAPGKERELVARINWDGGSTYYADSVKGRFTISRDNAKNTVYLQMNSLKPEDTAVYYCAAGFVGTNYPLQGFSYEYWGQGTQVTVSS",
    "polyreactivity (PSR sort gate)": "low polyreactivity"
  },
  {
    "sequence_text": "QVQLGESGGGLVQEGGSLRLSCAASGSTLQDYDMGWYRQAPGKERELVAAITWSTGTTYYADSVKGRFTISRDNAKNTVYLQMNSLKPEDPAVYYCAVDSYYRATYTYRYDYWGLGTQVTVSS",
    "polyreactivity (PSR sort gate)": "low polyreactivity"
  },
  {
    "sequence_text": "QEQLQESGSGLVQAGGSLRLSCAASGNIFQDWVRGWYRQAPGKERELVAAISPGAITYDADSVKGRFTISRDNAKNTVYLQTNSLNPEDTAVYYCAAYYIVEYLQGYWGQGTRVTVSS",
    "polyreactivity (PSR sort gate)": "low polyreactivity"
  }
]

* * *

test_details: yeast display, Sf9 membrane polyspecificity reagent, FACS + sequencing; frameworks hold sequencing errors

[
  {
    "sequence_text": "QVQLVESGGGLVQAGGILRLSCAASGRIFRVNTMGWYRKAPGKERELVAAIRSSGTRTYYADSVKGRFTISRDNAKNTVYLQMNSVKPEDTAVYYCAAYAWRYQAWEFGYWGQGTQVTVSS",
    "polyreactivity (PSR sort gate)": "high polyreactivity"
  },
  {
    "sequence_text": "QVQLVESGGGLVQAGGSLRLSCAASGRTFRYNAMGWYRQAPGKERELVAVINSNGGSTYYADSVKGRFTISRDNAKNTVYLQMNSLKPEDTAVYYCAADYLRIQEYDYWGQGTQVTVSS",
    "polyreactivity (PSR sort gate)": "low polyreactivity"
  },
  {
    "sequence_text": "EEELVESGGGLVQAGGSLRLSCAASGSTFLVYAMGWYRQAPGKERELVAVITSGGRTNYADSVKGRFTISRDNAKNTVYLQMNSLKPEDTAVYYCAVDGRSVPAWWPRFDYWGQGTQVTVSS",
    "polyreactivity (PSR sort gate)": "low polyreactivity"
  },
  {
    "sequence_text": "QVHLEESGRRLVQAGGSLRLSCAASGSIFSYYAMGWSRPAPGKEWELVAAISQSGGSTYYADSVKGRFTISGDNAKNTVDLQMNSLKPEDTAVYSCNAVARHTRAKYGSWGQGTQVTVSS",
    "polyreactivity (PSR sort gate)": "low polyreactivity"
  },
  {
    "sequence_text": "QVQLVESGGGLVQAGGSLPLSCAASGRTFGENAMGWYRQAPGKERELVAAITSGARTYYADSVKGRFTISRDNAKNTVYLQMNSLKPEDTAVYYCAKAYRRFSGGAGKQGGYYWGQGTQVTVSS",
    "polyreactivity (PSR sort gate)": "high polyreactivity"
  },
  {
    "sequence_text": "QVQLVESGGGLVQAGGSLRLSCAASGITFKYYTMGWYRQAPGKERELVASINNDGSTYYADSVKGRFTISRDNAKNTVYFQMNSLKPEDTAVYYCAASGYGWFWYDYWGHGTQVTVSS",
    "polyreactivity (PSR sort gate)": "high polyreactivity"
  }
]

* * *

test_details: yeast display, Sf9 membrane polyspecificity reagent, FACS + sequencing; frameworks hold sequencing errors

[
  {
    "sequence_text": "QVQLVESGGGLVQAGGSLRLSCAASGIIFSVYAMGWYRQAPGTERELVAAISGSGGSTYYADSVKGRFTISRDNAKNTVYLQMNSLKPEDTAVYYCAARKKWSIRSDYWGQGTQVTVSS",
    "polyreactivity (PSR sort gate)": "high polyreactivity"
  },
  {
    "sequence_text": "QVQLVESGGGLVQAGGSLRLSCAASGRTISSYAMGWSRQAPGKERELVAAISRSGGNTYYPDSVKGRFTISRDHAKNTVYLQMNSLKPEDTAVYYCNARGRTGFQADKFGYWGQGTQVTVSS",
    "polyreactivity (PSR sort gate)": "high polyreactivity"
  }
]

* * *

test_details: yeast display, Sf9 membrane polyspecificity reagent, FACS + sequencing; frameworks hold sequencing errors
quantity_kind: polyreactivity (PSR sort gate)

[
  {
    "sequence_text": "QVQLVESGGGLVQAGGSLRLSCAASGNIFLRYAMGWYRQAPGKERELVASITRSGASTYYAVSVKGRFTISRDNAKNTVYLQMNSLKPEDTAVYYCAASYYFRYYRGGYWGQGTQVTVSS",
    "value_observed": "high polyreactivity"
  },
  {
    "sequence_text": "QVQLVESGGGLVQAGGSLRLSCAASGFIFGYNTMGWYRQAPGKERELVAAISWSGGSTYYADSVKGRFTISRVNAKNSVYLQMNSLKPEDTAVYYCATVSRSYSELDYWGQGTQVTVSS",
    "value_observed": "low polyreactivity"
  },
  {
    "sequence_text": "QVQLVESGGGLVQAGGSLRLSCAASGSIFKYYALGWYRQAPGKERELVAAITSGVSTYADSVKGRFTISRDNAKNTVYLQMNSLKPEDTAVYYCAVRVTGPRGDYWGQGTQVTVSS",
    "value_observed": "low polyreactivity"
  },
  {
    "sequence_text": "QVQLVESGGGLVQAGGSLRLSCAASGSIFTRYAMGWYRQAPGKERELVAAISRSDGGTNYADSVKGRFTISRDNAKNTVYLQMNSLKPEDTAVYYCAKDWYYYYPYDYWGQGTQVTVSS",
    "value_observed": "low polyreactivity"
  },
  {
    "sequence_text": "QVQLVESGGGLVQAGGSLRLSCAASGIIFRVYAMGWYRQAPGKERELFATITWSGGSTFYADSLKGRFTISRDNAKNTVYLQLNSLKPEDTAVYYCAKRGYVRSGLGRPYADDYWGQCTQVTVSS",
    "value_observed": "low polyreactivity"
  },
  {
    "sequence_text": "QVQLVESGAGLVQAGGSLRLSCAASGIILRYYALGWYRQAPGKERELVAAISSGGRTYYADSVKGRFTISRDNAKNPVNLLMNSLTPEDTEVYSCAADDTRGREEYDYWGQGTQVTGSS",
    "value_observed": "high polyreactivity"
  },
  {
    "sequence_text": "QVQLVESAGGLVQAGASLRLSCAASGRIFVRNAMGWYRQAPGKEREMVADITNGGSTNYADSVKGRFTISRDNAKNTVYLQKNRLNPEDTAVYYCNADGFVYDLRARPGWVDYWGQGTQVTVSS",
    "value_observed": "low polyreactivity"
  },
  {
    "sequence_text": "QVQLQESGGGLAQAVGSLRLSCAASGNIFDPDIMGSYRQAPAKERELVGSITHGGSTNYVDSVKGRFTISRDNATNTVHLQMNRLKPVDTGVYYCAAIGYPDIPSYFDYDSDFFNWGHGTQVTVSS",
    "value_observed": "high polyreactivity"
  },
  {
    "sequence_text": "QVQLVESGGGLVQAGGSLRLSCAASGNIIQYYAMGWYRQAPGKERELVADIDSSGASKYYADSVKGRFTISRDNAKNTVYLQMNSLKPEVTAVYYCAAEFHWWYAGYDYGYWGQGTQVTVSS",
    "value_observed": "low polyreactivity"
  },
  {
    "sequence_text": "QVQLVESGGGIVQAGGSLRLSCAASGSTFDGYAMGWYRQAPGKERELVAAITRSGGSTYYADSVKGRFTISRDNAKNTVYLQMNSLKPEDTEVYYCNKYGYKGGVGYDYWGQGTQVTVSS",
    "value_observed": "high polyreactivity"
  },
  {
    "sequence_text": "QVQLVESGGGLVQAGGSLRLSCAASGSTFLKYTMGWYRQAPGKDRELVAGITRSSGSTYYADSVKGRFTISRDNAKNTVYLHMNSLKPEDTAVYYCAATVYLYTDLAYYWYGYWGQGTQVTVAS",
    "value_observed": "high polyreactivity"
  }
]
